Biological target: TRKA (Homo sapiens (Human))
Sequence (P04629 441-796): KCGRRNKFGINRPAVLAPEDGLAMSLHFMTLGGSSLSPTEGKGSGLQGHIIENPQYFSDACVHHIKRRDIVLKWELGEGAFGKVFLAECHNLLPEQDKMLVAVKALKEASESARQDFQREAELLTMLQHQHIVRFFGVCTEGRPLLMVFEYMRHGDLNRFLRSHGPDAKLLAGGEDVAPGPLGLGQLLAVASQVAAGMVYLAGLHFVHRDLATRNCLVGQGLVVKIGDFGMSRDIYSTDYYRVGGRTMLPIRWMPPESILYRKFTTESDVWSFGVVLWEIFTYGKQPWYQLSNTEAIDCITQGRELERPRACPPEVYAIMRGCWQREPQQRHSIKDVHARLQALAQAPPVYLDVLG
Test: Isolated TRK enzyme assay (HTRF KinEASE-TK), TRKA
Type: biochemical
Details: read-out: Trka enzyme (IC50)
observable: IC50 (nM)

Answered cases to consult:
[[record]]
molecule = "COc1cccc(CC(=O)Nc2cncc(C(=O)c3cn(C)c4ncncc34)c2)c1 [Example 175]"
observable = "IC50"
reported_measurement = 2590

[[record]]
molecule = "Cc1ccc(CC(=O)Nc2cncc(C(=O)c3cn(C(C)C)c4ncncc34)c2)cn1 [Example 154]"
observable = "IC50"
reported_measurement = 94.1

[[record]]
molecule = "CC(C)n1cc(C(=O)c2cncc(NC(=O)c3cn(C)nc3C(F)(F)F)c2)c2cncnc21 [Example 405]"
observable = "IC50"
reported_measurement = 1630

[[record]]
molecule = "CC(C)n1cc(C(=O)c2cncc(NC(=O)c3ccnc4ncsc34)c2)c2cncnc21 [Example 514]"
observable = "IC50"
reported_measurement = 9800

[[record]]
molecule = "Cn1cc(C(=O)c2cncc(NC(=O)Nc3ccc(OC(F)(F)F)cc3)c2)c2cncnc21 [Example 296]"
observable = "IC50"
reported_measurement = 47.7

[[record]]
molecule = "Cc1noc2ncc(C(=O)Nc3cncc(C(=O)c4cn(C(C)C)c5ncncc45)c3)cc12 [Example 508]"
observable = "IC50"
reported_measurement = 1630

[[record]]
molecule = "Cn1cc(C(=O)c2cncc(NC(=O)CCc3cccc(F)c3)c2)c2cncnc21 [Example 324]"
observable = "IC50"
reported_measurement = 3100

[[record]]
molecule = "CC(C)c1nnc2ccc(C(=O)Nc3cncc(C(=O)c4cn(C(C)C)c5ncncc45)c3)cn12 [Example 492]"
observable = "IC50"
reported_measurement = 1690

[[record]]
molecule = "O=C(Nc1cncc(C(=O)c2cn(C(CO)CO)c3ncncc23)c1)c1cc(F)cc(C(F)(F)F)c1 [Example 281]"
observable = "IC50"
reported_measurement = 161

[[record]]
molecule = "CNC(=O)Cn1cc(C(=O)c2cncc(NC(=O)Cc3ccc(Cl)cc3)c2)c2cncnc21 [Example 305]"
observable = "IC50"
reported_measurement = 2640


P = COc1ccc2[nH]cc(CC(=O)Nc3cncc(C(=O)c4cn(C(C)C)c5ncncc45)c3)c2c1 [Example 117]
Q = CC(C)n1cc(C(=O)c2cncc(NC(=O)c3cnc4occc4c3)c2)c2cncnc21 [Example 491]
So which one has the bigger IC50 here, P or Q ? The response must carry the label of the picked entry.
Q
(Q: 1410 nM, P: 68.4 nM)

1 = CC(C)n1cc(C(=O)c2cncc(NC(=O)Cc3cn4ccsc4n3)c2)c2cncnc21 [Example 360]
2 = O=C(Cc1cn2cc(Cl)ccc2n1)Nc1cncc(C(=O)c2cn(C3COC3)c3ncncc23)c1 [Example 223]
3 = O=C(Cc1ccc(Cl)cc1Cl)Nc1cncc(C(=O)c2cn(C(CO)CO)c3ncncc23)c1 [Example 278]
Hey, can you sort those molecules up there by IC50, smallest first? Quick reminder: the answer is the labels in the order asked.
3, 1, 2
(3: 54.3 nM, 1: 956 nM, 2: 1660 nM)
